biological target: Cytochrome P450 3A4 (CYP3A4) (Homo sapiens)
Sequence (P08684 14-503): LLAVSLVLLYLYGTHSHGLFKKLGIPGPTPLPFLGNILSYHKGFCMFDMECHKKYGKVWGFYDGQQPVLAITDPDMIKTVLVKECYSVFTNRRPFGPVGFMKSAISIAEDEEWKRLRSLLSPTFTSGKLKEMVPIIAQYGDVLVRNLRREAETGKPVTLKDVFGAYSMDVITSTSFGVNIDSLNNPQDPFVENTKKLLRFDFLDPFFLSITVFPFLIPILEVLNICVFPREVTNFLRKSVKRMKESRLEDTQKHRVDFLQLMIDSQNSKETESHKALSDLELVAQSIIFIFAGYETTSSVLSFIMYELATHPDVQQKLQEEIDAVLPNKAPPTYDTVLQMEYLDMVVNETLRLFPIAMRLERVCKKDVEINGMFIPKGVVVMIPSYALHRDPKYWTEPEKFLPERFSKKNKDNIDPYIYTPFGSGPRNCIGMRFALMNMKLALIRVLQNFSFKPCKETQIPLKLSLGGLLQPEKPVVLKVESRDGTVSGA
Sequence (P00388 2-678 partner): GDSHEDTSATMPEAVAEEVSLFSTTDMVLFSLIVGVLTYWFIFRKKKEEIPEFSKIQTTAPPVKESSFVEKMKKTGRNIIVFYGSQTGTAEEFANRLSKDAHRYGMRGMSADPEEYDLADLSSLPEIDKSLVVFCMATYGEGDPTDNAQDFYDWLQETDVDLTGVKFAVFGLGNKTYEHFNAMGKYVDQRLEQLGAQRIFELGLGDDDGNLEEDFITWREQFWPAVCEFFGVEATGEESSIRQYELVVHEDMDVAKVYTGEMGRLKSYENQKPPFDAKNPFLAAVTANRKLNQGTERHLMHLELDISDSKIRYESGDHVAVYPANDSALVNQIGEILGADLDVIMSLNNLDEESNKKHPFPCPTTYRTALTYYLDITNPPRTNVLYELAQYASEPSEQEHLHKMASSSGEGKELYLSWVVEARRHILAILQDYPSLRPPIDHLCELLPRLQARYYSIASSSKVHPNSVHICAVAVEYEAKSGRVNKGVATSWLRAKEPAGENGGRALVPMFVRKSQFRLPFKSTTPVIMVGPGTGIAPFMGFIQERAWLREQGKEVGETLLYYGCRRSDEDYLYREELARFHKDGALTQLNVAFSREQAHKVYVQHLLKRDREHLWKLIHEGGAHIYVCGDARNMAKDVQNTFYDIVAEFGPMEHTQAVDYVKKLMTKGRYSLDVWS
pKd: −log10 of the molar value.
Property measured: pKd

[[record]]
smiles_representation = "CC(=O)[C@H]1CC[C@H]2[C@@H]3CCC4=CC(=O)CC[C@]4(C)[C@H]3CC[C@]12C"
property_measured = "pKd"
experimental_value = 4.46

